Tested on: KM12 colon
Assay: NCI tumour cell line growth inhibition, 48 h; in the data active = GI50 below about 0.43 µM; inactive = the rest
Write down one outcome, taken from active, inactive

Req: How did this test come out for CC(=O)[CH-]C(=O)c1ccccc1.CC(=O)[CH-]C(=O)c1ccccc1.CCOCC[O-].CCOCC[O-].[Ti+4] ?
Resp: inactive

Req: Answer briefly: the call reported for COC(=O)c1cc(O)c2c(c1C(=O)OC)C[C@H]1[C@@H]3CC=C4C[C@@H](O)CC[C@]4(C)[C@H]3CC[C@]21C in this assay.
Resp: inactive

Req: // outcome(item) with item = C=C(OC1C(C)=C2C(C1OC(=O)CCCCCCC)C(C)(OC(C)=O)CC(OC(=O)CCC)C1(O)C2OC(=O)C1(C)O)/C(C)=C/C (stereo not given)
Resp: active

Req: Any idea what this test logged for CCN(CC)CCCNC(=O)c1c2c(n3ccccc13)C(=O)c1ncccc1C2=O ?
Resp: inactive

Req: Dear colleague, could you share the recorded outcome for CC(C)(C)[Si](C)(C)OC1[C@@H](O[Si](C)(C)C(C)(C)C)[C@@H](CNC(=O)NC(=O)CCl)O[C@H]1n1cnc2c(NC(=O)Nc3ccccc3)ncnc21 (stereo not given in full) when you have a moment?
Resp: inactive

====

System: UACC-62 melanoma
Assay: NCI tumour cell line growth inhibition, 48 h
The entries below come with measured TGI values attached.

# count of solved cases: 5
| compound | tgt | TGI |
| --- | --- | --- |
| Nc1ccc(C(=O)c2cn(CCN3CCOCC3)c3ccccc23)c2ccccc12 | UACC-62 melanoma | > 100 µM |
| C=C1C(=O)O[C@@H]2C[C@]3(C)CC[C@]4(C)[C@H](CC[C@@H]5[C@@]6(C)CCC(=O)C(C)(C)[C@@H]6CC[C@]54C)[C@H]3[C@H]12 | UACC-62 melanoma | 32.9 µM |
| CC(=O)N=C1N(/C=C2\C(=O)Oc3ccccc3C2=O)C(=O)/C(=C/c2ccc(Cl)cc2Cl)N1C | UACC-62 melanoma | > 100 µM |
| Cc1ccc(S(=O)(=O)NNC(=O)c2cc(C)c(C)cc2N)cc1 | UACC-62 melanoma | > 100 µM |
| COc1ccc(CN=C(N)N)c2ccccc12 | UACC-62 melanoma | > 100 µM |

Req: Dear colleague, I am looking for the recorded TGI of the following compound: CN(C)c1nc(=Nc2cccc(Cl)c2)ss1
Resp: 23.4 µM

Req: What does the record list as TGI for COC(=O)C1[C@H](c2cc(OC)c(OC)c(OC)c2)OC(=O)C1(C(=O)OC)C(=O)c1ccc2c(c1)OCO2 (stereo partly drawn) ?
Resp: > 100 µM

Req: Return reported TGI; argument: O=C(Cc1ccccc1)Nn1c(-c2ccccc2)nc2ccccc2c1=O
Resp: > 100 µM

====

Tested on: HOP-92 NSCLC
Assay: NCI tumour cell line growth inhibition, 48 h
Examples of compounds with documented TGI follow.

Use the examples below as a reference point.
| compound | val |
| --- | --- |
| CC(C)(C)CC(C)(C)NCc1cc(C(C)(C)C)cc(CNC(C)(C)CC(C)(C)C)c1O | 4.2 µM |
| C/C=C/C1OC(O)(C(C)C(O)[C@H](C)C2OC(=O)/C(OC)=C/C(C)=C/[C@@H](C)[C@@H](O)[C@@H](C)C(O)C(C)C/C(C)=C/C=C/C2OC)C[C@@H](OC2CC(O)C(OC(N)=O)C(C)O2)C1C (stereo partly specified) | < 0.01 µM |
| Cc1ccc2oc(=O)c(C(=O)Nc3nc(C45CC6CC(CC(C6)C4)C5)cs3)cc2c1 | > 100 µM |

Req: Return reported TGI; argument: CCOc1cccc2ccc[n+](CC)c12
Resp: > 100 µM

Req: What value of measured TGI is listed for CN1C(=O)C(=O)c2cc3c(c4c2c1cc1ccccc14)OCO3 ?
Resp: > 100 µM

Req: Which value of TGI has been reported for CCN(CC)CCNC(=O)c1cn2c(ccc3sc4ccccc4c(=O)c32)n1 in the records?
Resp: 24.6 µM

====

System: NCI-H23 lung
Experiment: NCI tumour cell line growth inhibition, 48 h
quantityKind: TGI

Check out these entries, answers already filled in.
| compound | tgt | val |
| --- | --- | --- |
| O=C1Nc2ccc(Cl)cc2/C1=C\c1c(Cl)nc2sccn12 | NCI-H23 lung | > 100 µM |
| CC1=C(C(=O)c2ccccc2)C23C(=O)N(c4ccccc4)C(=O)C2=C(O)C=CC3(O)N1 (stereo not given) | NCI-H23 lung | > 100 µM |
| COc1nc(N)nc2c1ncn2C1OC(CO)C(O)C1O (stereo not given) | NCI-H23 lung | > 5000 µM |
| CC(=O)NC1=C[C@@H]([C@H]2COC(C)(C)O2)OC1=O | NCI-H23 lung | > 100 µM |
| CC1=NN(c2nc(N)nc(CC#N)n2)C(C)(C)C1 | NCI-H23 lung | > 100 µM |

Req: Recorded TGI for COC(=O)c1cc(O)c2c(c1C(=O)OC)C[C@H]1[C@@H]3CC=C4C[C@@H](O)CC[C@]4(C)[C@H]3CC[C@]21C , please?
Resp: 23.5 µM

Req: Need TGI, item C/C=C/CC(C)[C@@H](O)[C@H](NC)C(=O)O (stereo not given in full)
Resp: > 100 µM

Req: Can you share its TGI? I mean this compound: COC(=O)c1cnc(Cl)cn1
Resp: 54 µM

Req: What TGI value was documented for this compound, CCOC(=O)c1sc2[n+](c1C)C(=O)/C(=C/c1ccc([N+](=O)[O-])cc1)S2 ?
Resp: 48.4 µM

Req: Request the reported TGI associated with CC(=O)OC[C@@H](OC(C)=O)[C@H](OC(C)=O)[C@@H]1OC(C)(C)O[C@@H]1C1SCCCS1
Resp: > 100 µM

====

System: EKVX NSCLC
Experiment: NCI tumour cell line growth inhibition, 48 h
Below, each entry is listed with its recorded GI50.

| compound | GI50 |
| --- | --- |
| CC(=O)[CH-]C(=O)c1ccccc1.CC(=O)[CH-]C(=O)c1ccccc1.CCOCC[O-].CCOCC[O-].[Ti+4] | 38.4 µM |
| OCC(O)c1nc2ccc3[nH]ncc3c2c2c1CCCC2 (stereo not drawn) | 1.3 µM |

Moving on to another compound below.
Req: Give the measured GI50 of COc1cccc(/C=C/C(=O)c2ccc(Cl)cc2Cl)c1 .
Resp: 13.5 µM

====

Tested on: COLO 205 colon
Assay: NCI tumour cell line growth inhibition, 48 h; in the data active means GI50 below about 0.43 µM; inactive means the rest
Hi! Could you answer with just one of these? active, inactive

The following compounds have reported results that may help.
| compound | tgt | assignedCategory |
| --- | --- | --- |
| Cn1c2ccc(Br)cc2c2c3c(c4c5ccccc5[nH]c4c21)C(=O)N(O)C3=O | COLO 205 colon | active |
| O=C(Nc1ccc(-n2ccc3c(NC(=O)c4ccccc4)ncnc32)cc1)Nc1cccc(Cl)c1Cl | COLO 205 colon | inactive |
| COc1cccc(NC(=O)c2sc3nc4c(cc3c2N)C(=O)CCC4)c1 | COLO 205 colon | active |
| CC(C)(C)[Si](C)(C)OC1[C@@H](O[Si](C)(C)C(C)(C)C)[C@@H](CNC(=O)NC(=O)CCl)O[C@H]1n1cnc2c(NC(=O)Nc3ccccc3)ncnc21 (stereo not given in full) | COLO 205 colon | inactive |

Please find the next compound below.
Req: Outcome? COc1cc(-c2nc(-c3nc4ccccc4[nH]3)cc3c2[nH]c2ccccc23)cc(OC)c1OC
Resp: inactive

====

# TGI annotations
Test system: RPMI-8226 leukemia
Experiment: NCI tumour cell line growth inhibition, 48 h

| compound | quantityKind | val |
| --- | --- | --- |
| O=C(O)Cc1ccc2[nH]c(O)c(C3=Nc4ccccc4C3=O)c2c1 | TGI | > 100 µM |
| CCCCCCCCCCC1OC([C@@H](O)CC[C@H](O)C2CC[C@@H](CCCCCCCC(O)CC3=CC(C)OC3=O)O2)CCC1O (stereo not given in full) | TGI | 15.4 µM |
| CC(C)(C)C(=O)OCC1CCC(n2cnc3c(=O)[nH]c(N)nc32)O1 (stereo not given) | TGI | > 100 µM |

Req: So what does the record say about TGI for O=C1c2cc(Cl)ccc2NC(=NCCCl)C2CSCN12 (stereo not given) ?
Resp: > 100 µM

Req: Look up TGI: COC(=O)C1[C@H](c2cc(OC)c(OC)c(OC)c2)OC(=O)C1(C(=O)OC)C(=O)c1ccc2c(c1)OCO2 (stereo not given in full)
Resp: > 100 µM

====

System: A498 renal
Assay: NCI tumour cell line growth inhibition, 48 h
Below: a set of entries, each annotated with reported TGI.
I only need the number, in µM, no unit after it.

| molecule | tgt | quantityKind | val |
| --- | --- | --- | --- |
| COc1ccc(N2C(=O)C3c4[nH]c5ccc(F)cc5c4C4CCC(c5ccccc5)CC4C3C2=O)cc1 (stereo not given) | A498 renal | TGI | 34.3 |

Turning now to a further record.
Req: Provide value of TGI for this record tested with A498 renal: O=C(OCc1ncc(-c2ccc(C(F)(F)F)cc2)c(NC2CCCCCC2)n1)c1c(F)c(F)c(F)c(F)c1F
Resp: 33.2
